- tested.target: Vascular endothelial growth factor receptor 1 (Homo sapiens)
- Sequence (P17948 whole entry): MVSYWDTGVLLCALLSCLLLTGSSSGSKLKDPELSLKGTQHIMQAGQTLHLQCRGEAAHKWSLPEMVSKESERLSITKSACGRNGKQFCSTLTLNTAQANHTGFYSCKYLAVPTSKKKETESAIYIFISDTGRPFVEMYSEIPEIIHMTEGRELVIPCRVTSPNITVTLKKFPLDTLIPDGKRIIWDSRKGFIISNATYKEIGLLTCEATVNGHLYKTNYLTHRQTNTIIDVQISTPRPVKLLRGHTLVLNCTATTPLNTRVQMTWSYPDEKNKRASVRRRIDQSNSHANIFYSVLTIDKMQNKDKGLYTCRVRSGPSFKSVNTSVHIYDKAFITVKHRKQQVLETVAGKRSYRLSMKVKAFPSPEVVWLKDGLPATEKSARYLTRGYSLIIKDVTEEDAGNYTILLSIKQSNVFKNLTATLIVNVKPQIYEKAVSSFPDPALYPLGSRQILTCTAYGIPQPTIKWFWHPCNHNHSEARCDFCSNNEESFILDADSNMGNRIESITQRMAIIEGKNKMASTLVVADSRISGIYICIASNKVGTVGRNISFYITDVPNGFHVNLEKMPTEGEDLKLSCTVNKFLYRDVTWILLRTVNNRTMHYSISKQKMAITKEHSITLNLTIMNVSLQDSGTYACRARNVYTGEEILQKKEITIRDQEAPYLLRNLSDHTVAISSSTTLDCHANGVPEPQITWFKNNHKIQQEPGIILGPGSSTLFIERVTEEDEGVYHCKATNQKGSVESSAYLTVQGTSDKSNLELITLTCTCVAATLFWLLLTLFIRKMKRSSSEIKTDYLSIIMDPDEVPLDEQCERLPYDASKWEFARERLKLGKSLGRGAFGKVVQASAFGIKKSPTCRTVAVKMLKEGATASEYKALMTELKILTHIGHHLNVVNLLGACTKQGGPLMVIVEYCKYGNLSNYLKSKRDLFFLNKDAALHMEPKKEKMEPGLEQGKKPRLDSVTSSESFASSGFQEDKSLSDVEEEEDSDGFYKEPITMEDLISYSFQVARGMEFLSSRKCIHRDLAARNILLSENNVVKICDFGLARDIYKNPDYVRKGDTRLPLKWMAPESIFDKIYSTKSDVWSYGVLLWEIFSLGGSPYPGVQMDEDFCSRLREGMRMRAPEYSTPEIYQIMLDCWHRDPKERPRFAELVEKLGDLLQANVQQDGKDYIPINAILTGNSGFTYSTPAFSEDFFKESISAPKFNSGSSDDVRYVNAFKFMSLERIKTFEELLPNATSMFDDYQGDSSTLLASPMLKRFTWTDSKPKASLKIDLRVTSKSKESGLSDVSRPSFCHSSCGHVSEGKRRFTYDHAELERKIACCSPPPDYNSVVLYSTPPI
- experiment.description: Inhibition of VEGF-induced VEGFR1 phosphorylation in human A498 cells overexpressing Flt-1 pretreated for 60 mins prior to VEGF addition measured after 10 mins by phosphotyrosine ELISA cytoblot analysis
Below, each entry is listed with its recorded IC50.

Some molecules with known IC50 results, for comparison:
In [3]: df
Out[3]:
                                  structure  endpoint_name  measured
0  Nc1nc(Nc2cccc(Br)c2)c2cc(CCc3ccccn3)[nH]c2n1           IC50   > 50 µM
1  Nc1nc(Nc2cccc(C(F)(F)F)c2)c2cc(CCc3ccccn3)[nH]c2n1           IC50  > 200 µM

Now consider the entry below.
Enquiry: Which IC50 is reported for this molecule? Nc1nc(Nc2ccc(F)c(Cl)c2)c2cc(CCc3ccccn3)[nH]c2n1
Return: > 200 µM
